All values here come from patent US20210038587A1.

# Tested on: MIAPaCa-2
# assay_info: Reverse Phase Protein Analysis (RPPA)
# Type: cell-based
# experimental_setup: MIAPaca2; % change from DMSO (matched cell line)
assay_endpoint: Avg (Cyclin D1) (%)
Provide the reading as a plain figure in %.

Ask | Query Avg (Cyclin D1) for O=C(Nc1ccc2[nH]nc(-c3ccncc3)c2c1)[C@@H]1CCN(CC(=O)N2CCN(c3ccc(-c4ncccn4)cc3)CC2)C1
Reply | −39.88

Ask | Query Avg (Cyclin D1) for Cc1cnc(Nc2ccc(F)cc2Cl)nc1-c1c[nH]c(C(=O)N[C@H](CO)c2cccc(Cl)c2)c1 [Vx-11e]
Reply | −33.96

Ask | Query Avg (Cyclin D1) for CC(C)Nc1cc(-c2c[nH]c(C(=O)N[C@H](CO)c3cccc(Cl)c3)c2)c(Cl)cn1
Reply | −37.9

Ask | Query Avg (Cyclin D1) for Cn1nccc1Nc1nccc(-c2ccn([C@H](CO)c3ccc(Cl)c(F)c3)c(=O)c2)n1
Reply | −31.92
